Values were extracted from PubChem BioAssay (NCI).

Test system: CCRF-CEM leukemia
Assay: NCI tumour cell line growth inhibition, 48 h
Parameter TGI: see the listing below.

Ask: May I ask what TGI has been recorded for `O=C1NC(=NCc2c(Cl)cccc2Cl)S/C1=C\c1ccc2ncccc2c1` ?
Reply: > 25 µM

Ask: May I ask what TGI has been recorded for `[N-]=[N+]=Nc1ncnc2c1sc(=S)n2-c1ccccc1` ?
Reply: > 100 µM

Ask: May I ask what TGI has been recorded for COc1cc(C(=O)O[C@H]2CCC3CCC2N3C)cc(OC)c1OC (stereo not given in full) ?
Reply: > 100 µM

Ask: May I ask what TGI has been recorded for COc1cc(C2c3cc4c(cc3[C@@H](Nc3ccc(F)cc3)C3CO[C@@H](O)[C@H]23)OCO4)cc(OC)c1O (stereo not given in full) ?
Reply: 7.72 µM

Ask: May I ask what TGI has been recorded for `CCN(CC)CCn1ncc2c(N)ncnc21` ?
Reply: > 100 µM

Ask: May I ask what TGI has been recorded for `CC(=O)OCc1cc(=O)n2c([nH]c3ccccc32)c1C#N` ?
Reply: > 100 µM

Ask: May I ask what TGI has been recorded for `C#CCNCCCN1C(=O)c2ccc3c4c(ccc(c24)C1=O)C(=O)N(CCCNCC#C)C3=O` ?
Reply: 2.89 µM

Ask: May I ask what TGI has been recorded for `COc1cc2nccc(Oc3ccc(NC(=O)C4(C(=O)Nc5ccc(F)cc5)CC4)cc3)c2cc1OC(=O)c1ccc(N)cc1` ?
Reply: > 100 µM

Ask: May I ask what TGI has been recorded for `CCOC(=O)c1cc(C(=O)c2cc(OC)c(OC)c(OC)c2)n2nc(C)ccc12` ?
Reply: > 100 µM

Ask: May I ask what TGI has been recorded for CCOc1ccc(C2Oc3c(cccc3OC)C=C2[N+](=O)[O-])cc1OCC (stereo not given) ?
Reply: 6.88 µM

Ask: May I ask what TGI has been recorded for `CCOc1ccccc1C(=O)/C=C/c1cc2ccccc2[nH]c1=O` ?
Reply: > 100 µM

Ask: May I ask what TGI has been recorded for `CC(C)OP(=O)(OC(C)C)/C(F)=N/Nc1ccc([N+](=O)[O-])cc1` ?
Reply: > 100 µM

Ask: May I ask what TGI has been recorded for Cc1ccc(S(=O)(=O)NC2CCCCO2)cc1 (stereo not given) ?
Reply: > 100 µM

Ask: May I ask what TGI has been recorded for CC1CC(c2ccccc2)Nc2nc3ccccc3n21 (stereo not given) ?
Reply: > 100 µM

Ask: May I ask what TGI has been recorded for `CN(C)CCNc1ccc2nnn3c4ccc(O)cc4c(=O)c1c23` ?
Reply: 32.9 µM

Ask: May I ask what TGI has been recorded for `O=S(=O)(Nc1cc(F)cc(F)c1)c1ccc(-c2cnc(C3CC3)o2)cc1` ?
Reply: > 100 µM

Ask: May I ask what TGI has been recorded for `Cc1ncc([N+](=O)[O-])n1CCNC(=O)CCC(=O)NCCCn1ccnc1[N+](=O)[O-]` ?
Reply: > 100 µM

Ask: May I ask what TGI has been recorded for O=C1C=CC2(NN=C(c3ccccc3)N2c2ccccc2)c2cccc(O)c21 (stereo not given) ?
Reply: > 100 µM
